molecular target: GluA1o-γ8 (GRIA1o-CACNG8 fusion construct; TARP γ8 dependent AMPA receptor) (Homo sapiens (Human), UniProt P42261+Q8WXS5); assay: Calcium flux assay (FLIPR), inhibition of glutamate response of GluA1o-γ8 channel; type: cell-based; conditions: HEK293 cells stably expressing GRIA1o-CACNG8 fusion; 15 μM glutamate; pIC50 = negative log of IC50 in molar; read-out: GluR1-γ8 (pIC50) (converted)
Sequence (P42261 other isoform, or with tags, fused parts or gaps): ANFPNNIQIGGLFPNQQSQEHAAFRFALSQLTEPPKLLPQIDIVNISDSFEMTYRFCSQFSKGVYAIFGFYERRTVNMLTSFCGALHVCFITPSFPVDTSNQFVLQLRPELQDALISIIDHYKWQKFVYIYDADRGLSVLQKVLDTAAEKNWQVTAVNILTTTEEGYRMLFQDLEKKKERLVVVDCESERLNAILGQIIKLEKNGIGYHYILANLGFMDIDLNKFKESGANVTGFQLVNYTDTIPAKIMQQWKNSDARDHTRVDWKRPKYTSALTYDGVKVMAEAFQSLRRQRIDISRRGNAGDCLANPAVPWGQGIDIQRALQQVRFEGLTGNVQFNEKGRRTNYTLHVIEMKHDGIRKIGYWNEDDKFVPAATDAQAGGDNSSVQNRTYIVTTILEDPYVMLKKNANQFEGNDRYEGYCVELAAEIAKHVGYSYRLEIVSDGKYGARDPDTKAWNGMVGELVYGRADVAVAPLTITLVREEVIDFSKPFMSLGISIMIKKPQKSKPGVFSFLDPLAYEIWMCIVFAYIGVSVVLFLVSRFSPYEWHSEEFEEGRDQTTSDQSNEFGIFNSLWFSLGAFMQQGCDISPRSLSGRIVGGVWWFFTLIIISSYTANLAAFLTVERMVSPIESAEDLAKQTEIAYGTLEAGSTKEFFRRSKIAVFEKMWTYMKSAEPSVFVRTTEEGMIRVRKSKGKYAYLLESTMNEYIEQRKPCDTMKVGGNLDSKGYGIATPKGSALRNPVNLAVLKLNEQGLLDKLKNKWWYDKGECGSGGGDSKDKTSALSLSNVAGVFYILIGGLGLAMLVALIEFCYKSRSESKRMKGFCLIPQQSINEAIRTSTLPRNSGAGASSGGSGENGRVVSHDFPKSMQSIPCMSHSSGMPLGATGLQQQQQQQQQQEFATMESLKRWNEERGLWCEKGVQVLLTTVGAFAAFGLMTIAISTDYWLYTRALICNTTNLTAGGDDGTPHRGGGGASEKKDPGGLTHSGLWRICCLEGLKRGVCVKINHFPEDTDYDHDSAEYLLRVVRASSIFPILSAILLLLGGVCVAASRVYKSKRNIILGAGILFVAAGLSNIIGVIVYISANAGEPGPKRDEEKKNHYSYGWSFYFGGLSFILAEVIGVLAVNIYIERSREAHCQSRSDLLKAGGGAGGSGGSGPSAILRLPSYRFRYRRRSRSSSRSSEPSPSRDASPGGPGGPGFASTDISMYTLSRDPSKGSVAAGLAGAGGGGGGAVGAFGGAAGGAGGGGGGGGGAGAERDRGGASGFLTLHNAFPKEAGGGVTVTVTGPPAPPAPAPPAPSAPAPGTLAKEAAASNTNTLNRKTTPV
result type: IC50 (nM)

CC1COCCN1c1nccn2c(-c3ccc4c(c3)CC(=O)N4)c(-c3ccc(F)cc3)nc12 (stereo not shown) [Example 39] ... 0.794

[1] Cc1cnc(N2CCOCC2)n2nc(C(C)C)c(-c3ccc4[nH]ncc4c3)c12 [Example 239]
[2] Oc1ccc(-c2c(C3CCCCC3)nc3c(N4CCOCC4)nccn23)cc1 [Example 85]
Which item exceeds the other in IC50, 1 or 2 ? // return label of chosen record
2

----------
biological target: GluA1o-γ8 (GRIA1o-CACNG8 fusion construct; TARP γ8 dependent AMPA receptor) (Homo sapiens (Human), UniProt P42261+Q8WXS5); experiment: Calcium flux assay (FLIPR), inhibition of glutamate response of GluA1o-γ8 channel; type: cell-based; details: HEK293 cells stably expressing GRIA1o-CACNG8 fusion; 15 μM glutamate; pIC50 = negative log of IC50 in molar; read-out: GluR1-γ8 (pIC50) (converted)
result type: IC50 (nM)

CC(=O)N1CCN(c2nccn3c(-c4ccc5c(c4)CC(=O)N5)c(-c4ccc(F)cc4)nc23)CC1 ... 0.398

[P] O=C1Cc2cc(-c3c(-c4ccccc4)nc4c(N5CCC(CCF)CC5)nccn34)ccc2N1
[Q] CC(C)(C)c1nn2c(N3CCC(O)CC3)nccc2c1-c1ccc2c(c1)CC(=O)N2
[R] CNc1nccc2c(-c3ccc4c(c3)CC(=O)N4)c(-c3ccc(F)cc3)nn12
Please put the entries in order of rising IC50. Output spec: labels arranged per the requested ranking.
P, R, Q
(P: 0.398 nM, R: 12.6 nM, Q: 200 nM)

----------
molecular target: GluA1o-γ8 (GRIA1o-CACNG8 fusion construct; TARP γ8 dependent AMPA receptor) (Homo sapiens (Human), UniProt P42261+Q8WXS5); experiment: Calcium flux assay (FLIPR), inhibition of glutamate response of GluA1o-γ8 channel; format: cell-based; details: HEK293 cells stably expressing GRIA1o-CACNG8 fusion; 15 μM glutamate; pIC50 = negative log of IC50 in molar; read-out: GluR1-γ8 (pIC50) (converted)
result type: IC50 (nM)

O=C1Cc2cc(-c3c(-c4ccc(F)cc4)nn4c(N5CCC(F)CC5)nccc34)ccc2N1 ... 0.2

[I] O=C1Cc2cc(-c3c(-c4ccc(F)cc4)nc4c(N5CC[C@@H](O)C5)nccn34)ccc2N1 (single isomer, unassigned)
[II] O=C1Cc2cc(-c3c(-c4ccc(F)cc4)nn4c(N5CCS(=O)(=O)CC5)nccc34)ccc2N1
Which item exceeds the other in IC50, I or II ? // return label of chosen record
I
(I: 1.58 nM, II: 0.631 nM)

----------
molecular target: GluA1o-γ8 (GRIA1o-CACNG8 fusion construct; TARP γ8 dependent AMPA receptor) (Homo sapiens (Human), UniProt P42261+Q8WXS5); assay: Calcium flux assay (FLIPR), inhibition of glutamate response of GluA1o-γ8 channel; assay type: cell-based; conditions: HEK293 cells stably expressing GRIA1o-CACNG8 fusion; 15 μM glutamate; pIC50 = negative log of IC50 in molar; read-out: GluR1-γ8 (pIC50) (converted)
result type: IC50 (nM)

Here's what some known entries look like.
CC(=O)N[C@H]1CCN(c2nccn3c(-c4ccc5[nH]c(=O)[nH]c5c4)c(-c4ccc(F)cc4)nc23)C1 [Example 98] ... 2.51
CC1C(=O)N(C)CCN1c1nccn2c(-c3ccc4c(c3)CC(=O)N4)c(-c3ccc(F)cc3)nc12 (stereo not shown) [Example 111] ... 1.58
O=C1Cc2cc(-c3c(-c4ccccc4)nn4c(OC5CCCC5)nccc34)ccc2N1 [Example 192] ... 7.94
Oc1ccc(-c2c(-c3ccc(F)cc3)nc3c(N4CCCC(F)(F)C4)nccn23)cc1 [Example 29] ... 31.6
O=c1[nH]c2ccc(-c3c(-c4ccccc4)nn4cnc(C(F)(F)F)cc34)cc2o1 [Example 223] ... 501

[P] Oc1ccc(-c2c(-c3ccc(F)cc3)nc3c(N4CCCCC4)nccn23)cc1 [Example 9]
[Q] CC(=O)N1CCN(c2nccn3c(-c4ccc5c(c4)CC(=O)N5)c(-c4ccc(C#N)cc4)nc23)CC1 [Example 107]
Of P versus Q , which is the one with smaller reported IC50? // return label of chosen record
Q

[P] CN(C)c1nccn2c(-c3ccc4c(c3)CC(=O)N4)c(C(=O)c3ccccc3)nc12 [Example 152]
[Q] CC1(O)CCN(c2nccc3c(-c4ccc5c(c4)CC(=O)N5)c(-c4ccc(F)cc4)nn23)CC1 [Example 186]
Of P versus Q , which is the one with smaller reported IC50? // return label of chosen record
Q

[1] Nc1nccn2c(-c3ccc4c(c3)CC(=O)N4)c(-c3ccc(F)cc3)nc12 [Example 248]
[2] O=C1Cc2cc(-c3c(C4CCCCC4)nc4c(N5CCOCC5)nccn34)ccc2N1 [Example 56]
Of 1 versus 2 , which is the one with smaller reported IC50? // return label of chosen record
2
(2: 7.94 nM, 1: 5010 nM)

[a] O=C1NCc2cc(-c3c(-c4ccc(F)cc4)nc4c(N5CCOCC5)nccn34)ccc2N1 [Example 120]
[b] O=C1CN(c2nccn3c(-c4ccc5[nH]c(=O)[nH]c5c4)c(-c4ccc(F)cc4)nc23)CCN1 [Example 34]
Of a versus b , which is the one with smaller reported IC50? // return label of chosen record
b
(b: 1.26 nM, a: 100 nM)
